Entries and their measured Fold (BLI enhancement), previously unknown compounds follow.
Target: ABCG2 (Homo sapiens, UniProt Q9UNQ0)
Test: Bioluminescence imaging (BLI) assay in HEK293/ABCG2/fLuc cells
Conditions: human, 40 min, 17 μM
The reply should contain only the number, in fold.

Record excerpt, results attached:
N#Cc1ccc2c(c1)N(CCCN1CCC(O)CC1)c1ccccc1S2 [periciazine] ... 6.3
COC(=O)Nc1nc2cc(C(=O)c3ccc(F)cc3)ccc2[nH]1 [flubendazole] ... 6.3
COC(=O)[C@H]1[C@H]2C[C@H]3c4[nH]c5cc(OC)ccc5c4CCN3C[C@H]2C[C@@H](OC(=O)c2cc(OC)c(OC)c(OC)c2)[C@@H]1OC [isoreserpine] ... 6.2

Now consider a different compound.
query: Quick one: give measured Fold (BLI enhancement), previously unknown compounds for CC(C)(C(=O)c1cccnc1)c1cccnc1 [metyrapone, 2-methyl-1,2-dipyridin-3-yl-propan-1-one]
result: 6.3

---

Target: ABCG2 (Homo sapiens, UniProt Q9UNQ0)
Sequence (Q9UNQ0 1-655): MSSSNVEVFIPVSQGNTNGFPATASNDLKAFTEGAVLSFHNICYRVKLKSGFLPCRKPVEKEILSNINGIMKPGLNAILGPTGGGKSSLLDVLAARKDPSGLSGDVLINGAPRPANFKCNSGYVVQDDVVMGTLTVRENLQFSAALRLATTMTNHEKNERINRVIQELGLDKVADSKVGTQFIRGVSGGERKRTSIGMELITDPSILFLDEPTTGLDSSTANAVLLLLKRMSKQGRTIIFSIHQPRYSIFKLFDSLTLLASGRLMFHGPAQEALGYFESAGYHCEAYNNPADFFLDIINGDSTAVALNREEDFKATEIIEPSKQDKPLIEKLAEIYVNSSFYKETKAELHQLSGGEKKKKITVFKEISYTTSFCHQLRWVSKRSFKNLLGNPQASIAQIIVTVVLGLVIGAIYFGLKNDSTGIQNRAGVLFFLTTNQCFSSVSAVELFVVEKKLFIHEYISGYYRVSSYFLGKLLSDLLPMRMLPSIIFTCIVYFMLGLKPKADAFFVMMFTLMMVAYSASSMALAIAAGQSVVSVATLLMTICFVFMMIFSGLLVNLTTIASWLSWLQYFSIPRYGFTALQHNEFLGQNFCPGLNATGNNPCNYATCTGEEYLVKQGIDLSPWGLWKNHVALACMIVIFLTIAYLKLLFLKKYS
Assay: Bioluminescence imaging (BLI) assay in HEK293/ABCG2/fLuc cells
Conditions: human, 40 min, 17 μM
Counter-ions that a name gives are not always drawn.
Mark false (0) for Fold (BLI enhancement, S/B ratio over control) values under 3 fold, and true (1) for everything at or above.

Known results for molecules:
OCCN1CCN(CCCN2c3ccccc3Sc3ccc(Cl)cc32)CC1 ... true (1)
COCCOC(=O)C1=C(C)NC(C)=C(C(=O)OC(C)C)C1c1cccc([N+](=O)[O-])c1 (stereo not shown) ... false (0)
O=C(c1ccc(OCCN2CCCCC2)cc1)c1c(-c2ccc(O)cc2)sc2cc(O)ccc12 [raloxifene hydrochloride] ... true (1)
O=c1[nH]c2ccccc2n1CCCN1CCC(n2c(=O)[nH]c3cc(Cl)ccc32)CC1 ... false (0)
O=c1cc(-c2ccccc2)oc2cc(O)c(O)cc12 [6,7-dihydroxyflavone] ... false (0)

query: Hi team, for CCN(CC)CCNc1ccc(CO)c2sc3ccccc3c(=O)c12 , is the recorded Fold (BLI enhancement, S/B ratio over control) at or above 3 fold?
result: false (0)

query: Form field: Fold (BLI enhancement, S/B ratio over control) at least 3 fold? Entry: COc1ccc(-c2cc(=O)c3c(O)c(OC)c(OC)cc3o2)cc1O
result: true (1)

query: Identify whether the reported Fold (BLI enhancement, S/B ratio over control) of the following molecule is 3 fold or greater: Cc1ccc(-c2cc(C(F)(F)F)nn2-c2ccc(S(N)(=O)=O)cc2)cc1
result: false (0)

query: Fold (BLI enhancement, S/B ratio over control) >= 3 fold for CCC(=O)OCC(=O)[C@@]1(OC(=O)CC)[C@@H](C)C[C@H]2[C@@H]3CCC4=CC(=O)C=C[C@]4(C)[C@@]3(Cl)[C@@H](O)C[C@@]21C [beclomethasone dipropionate] ?
result: true (1)

query: Tell me whether Fold (BLI enhancement, S/B ratio over control) is at least 3 fold here: CCCCC(=O)O[C@]1(C(=O)CO)[C@@H](C)C[C@H]2[C@@H]3CCC4=CC(=O)C=C[C@]4(C)[C@@]3(F)[C@@H](O)C[C@@]21C [betamethasone valerate]
result: false (0)

query: Confirm if Fold (BLI enhancement, S/B ratio over control) reported for the molecule O=C1CCc2cc(OCCCCc3nnnn3C3CCCCC3)ccc2N1 is 3 fold or above.
result: true (1)

query: Fold (BLI enhancement, S/B ratio over control) >= 3 fold for O=C(C1CCCCC1)N1CC(=O)N2CCc3ccccc3C2C1 (stereo not shown) ?
result: true (1)

query: Hello, I need to know if C=CC1=C(C(=O)O)N2C(=O)[C@@H](NC(=O)/C(=N\OCC(=O)O)c3csc(N)n3)[C@H]2SC1 has measured Fold (BLI enhancement, S/B ratio over control) not below 3 fold. Thanks!
result: true (1)

Just for reference, patent US20150148256A1 is where these values come from.
